molecular target: T1, human tau (human, UniProt P10636 2-60); experiment: competition ELISA on plate-coated human tau against biotinylated HJ8.5; IC50 normalised to chimeric HJ8.5; column C2N Run 1
T1 construct: also called soluble human tau; human tau protein
T1 sequence (P10636 2-60 limits assumed): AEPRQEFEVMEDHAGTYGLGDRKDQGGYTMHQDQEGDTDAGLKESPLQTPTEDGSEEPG
Reported IC50 (Relative to Chimera) values are given for each entry in this list.

Example entries begin here.
• VH3/VK2 humanized anti-tau antibody (antibody, human IgG4 S228P, kappa, V domains shown, Humanized variant of HJ8.5) VH: EVQVVESGGGLVQPGGSLKLSCVVSGFTFSNYWVNWVRQAPGKGLEWVAQIRLKSDNYATHYEESVKGRFTISRDDSKNSVYLQMNSLRAEDTAIYYCTNWEDYWGQGTTVTVSS VL: DIVLTQSPDSLAVSLGERATISCRASQSVSTSRYSYIHWYQQKPGQPPKLLIKYASNLESGVPSRFSGSGSGTDFTLNIHPLEPEDFATYYCHHSWEIPLTFGQGTKLEIKR = 0.81 relative to Chimera
• VH1/VK1 (antibody, human IgG4 S228P, kappa, V domains shown, humanized HJ8.5 variant, combination of VH1 and VK1) VH: EVKVVESGGGLVQPGGSMKLSCVVSGFTFSNYWVNWVRQAPGKGLEWVAQIRLKSDNYATHYEESVKGRFTISRDDSKSSVYLQMNNLRAEDSGIYYCTNWEDYWGQGTTVTVSS VL: DIVLTQSPDSLAVSLGERATISCRASQSVSTSRYSYIHWYQQKPGQPPKLLIKYASNLESGVPSRFSGSGSGTDFTLNIHPLEEEDFATYYCHHSWEIPLTFGQGTKLEIKR = 1.49 relative to Chimera
• murine anti-tau antibody HJ8.5 (antibody, V domains shown, Murine monoclonal antibody; also called parent antibody; murine parent) VH: EVKVEESGGGLVQPGGSMKLSCVVSGFTFSNYWVNWVRQSPEKGLEWVAQIRLKSDNYATHYEESVKGRFTISRDDSKSSVYLQMNNLRAEDSGIYYCTNWEDYWGQGTTLTVSS VL: DIVLTQSPASLAVSLGQRATISCRASQSVSTSRYSYIHWYQQKPGQPPKLLIKYASNLESGVPARFSGSGSGTDFTLNIHPLEEEDAATYYCHHSWEIPLTFGAGTKLELK = 0.79 relative to Chimera

// query Which IC50 (Relative to Chimera) value belongs to VH2/VK2 humanized anti-tau antibody (antibody, human IgG4 S228P, kappa, V domains shown, Humanized variant of HJ8.5) VH: EVKVVESGGGLVQPGGSLKLSCVVSGFTFSNYWVNWVRQAPGKGLEWVAQIRLKSDNYATHYEESVKGRFTISRDDSKSSVYLQMNSLRAEDTGIYYCTNWEDYWGQGTTVTVSS VL: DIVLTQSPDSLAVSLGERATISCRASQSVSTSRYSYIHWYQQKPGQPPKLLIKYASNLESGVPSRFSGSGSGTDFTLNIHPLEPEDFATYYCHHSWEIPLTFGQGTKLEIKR ?
// result 1.37 relative to Chimera

Value source: patent US20180371066A1
